# test-summary: qHTS assay to test for compound auto fluorescence at 460 nm (blue) in HepG2 cells (AID 720687)
# experimental-setup: autofluorescence 405/460 nm, 1 h; series mostly up to 91.3 µM
Active and inactive are the calls of the source. Calls follow the shape of the dose curve; as a rule, active = well fitted curve in the direction sought with a large enough effect in the repeat runs; inconclusive = weak or mixed curves; inactive = flat fitted curve, though single readings scatter.
test-readout: outcome

Take a look at these entries with their results.
| compound | test-readout | readout-value |
| --- | --- | --- |
| O=c1n(CCCN2CCN(c3cccc(Cl)c3)CC2)nc2ccccn12 | outcome | inactive |
| CCCCCCCCC(=O)O | outcome | inactive |
| OCC(CO)(CO)CO | outcome | inactive |
| COC(=O)/C=C\C(=O)OC | outcome | inactive |
| OCC(O)CS (stereo not given) | outcome | inactive |
| CCCCCNCCCCC | outcome | inactive |

The compound identified as CCN(CC)CCNC(=O)c1ccc(N)cc1 registered its outcome at inactive

The compound identified as O=C(c1ccccc1)c1ccc(O)c(O)c1O registered its outcome at inactive

The compound identified as O=C(O)C1=NN(c2ccc(S(=O)(=O)O)cc2)C(=O)C1 registered its outcome at inactive

The compound identified as C[n+]1ccn(CCO)c1 registered its outcome at inactive

The compound identified as COc1cc(NC(=O)CC(C)=O)c(OC)cc1Cl registered its outcome at inactive

The compound identified as CC(C=O)Cc1ccc(C(C)(C)C)cc1 (stereo not given) registered its outcome at inactive

The compound identified as Cc1nnc(NS(=O)(=O)c2ccc(N)cc2)s1 registered its outcome at inactive

The compound identified as Cc1ccc([N+](=O)[O-])cc1N registered its outcome at inactive

The compound identified as CCc1cccc(O)c1 registered its outcome at inactive
